Test system: Respiratory syncytial virus
Assay: microbe, parasite or virus in culture
Settings: human respiratory syncytial virus, HeLa
measurement.type: EC50 (µM)
One number for each entry, in µM.

smiles.code: Nc1ncnc2c1ncn2CCOCP(=O)(OCCCCCCCCCCO)OCCCCCCCCCCO
measurement.type: EC50
result.value: 99

Consider the additional compound presented here.
The recorded EC50 for entry NC(=O)c1ncn([C@@H]2O[C@H](CO)[C@@H](O)[C@H]2O)n1 equals 3

###

Test system: Coxsackievirus B4
Experiment: microbe, parasite or virus in culture
Settings: Enterovirus B, HeLa
measurement.type: EC50

Nc1ncnc2c1ncn2CCOCP(=O)(OCCOCCCCCCCCCCO)OCCOCCCCCCCCCCO on Coxsackievirus B4 gives EC50 = > 29.7 µM

###

System: HeLa
Settings: human, 72 h
measurement.type: CC50 (µM)
Give bare numbers, in µM.

Note to self: CC50 recorded for Nc1ncnc2c1ncn2CCOCP(=O)(OCCOCCCCCCCCCCO)OCCOCCCCCCCCCCO was 148

###

Hi there, I'd appreciate the recorded EC50 for every entry that follows.
Tested on: Vaccinia virus
Experiment: microbe, parasite or virus in culture
Conditions: Orthopoxvirus vaccinia, HEL
Give bare numbers, in µM.

Some compounds with recorded EC50:
smiles.code: Nc1ccn(C[C@@H](CO)OCP(=O)(O)O)c(=O)n1
measure.unit: µM
EC50: 7
--
smiles.code: Nc1ccn(C[C@@H](CO)OCP(=O)(O)OCCOCCOCCOCCOCCOCCO)c(=O)n1
measure.unit: µM
EC50: 107

The recorded EC50 for CCOCCOCCOCCOCCOCCOCCOP(=O)(O)CO[C@H](CO)Cn1ccc(N)nc1=O is 15.7

###

Test system: Feline coronavirus
Test: microbe, parasite or virus in culture
Conditions: Alphacoronavirus 1, CRFK
pEC50: −log10 of the molar value.
Answer each item with its documented pEC50.

compound: Nc1ncnc2c1ncn2CCOCP(=O)(OCCOCCCCCCCCCCO)OCCOCCCCCCCCCCO
result.value: < 4.53

Next compound, pEC50 to be filled in.
What the record says about Nc1ncnc2c1ncn2CCOCP(=O)(O)OCCCCCCCCC(O)CO (configuration not stated) : pEC50 is < 5.05

###

Can you tell me pEC50 for the items I'm about to list?
System: Human immunodeficiency virus 1
Assay: microbe, parasite or virus in culture
Settings: Human immunodeficiency virus 1, 3B, CCRF-CEM, 96 h
One number for each entry, as −log10 of the molar value.

Example entries and their recorded answers appear below.
smiles.code: Cc1oc(=O)oc1COP(=O)(O)COCCn1cnc2c(N)ncnc21
result.value: 4.97
--
smiles.code: Nc1ncnc2c1ncn2CCOCP(=O)(O)O
result.value: 4.98

// switching to the query molecule
Reported pEC50 ( Nc1ncnc2c1ncn2CCOCP(=O)(O)OCCOCCCCCCCCCCO ) = 3.97

###

Provide the reported EC50 of each item.
System: Influenza A virus
Assay: microbe, parasite or virus in culture
Conditions: H3N2, MDCK

// worked examples, EC50 included
molecule: Nc1ncnc2c1ncn2CCOCP(=O)(OCCOCCCCCCCCCCO)OCCOCCCCCCCCCCO
EC50: > 5.9 µM
--
molecule: Nc1ncnc2c1ncn2CCOCP(=O)(OCCCCCCCCC(O)CO)OCCCCCCCCC(O)CO (stereo not drawn)
EC50: > 324 µM

Now look at this entry.
The molecule identified as Nc1ncnc2c1ncn2CCOCP(=O)(O)OCCOCCCCCCCCCCO registered its EC50 at > 42 µM

###

Hi there, I'd appreciate the recorded EC50 for every entry that follows.
Test system: Punta Toro virus
Assay: microbe, parasite or virus in culture
Conditions: Vero

smiles.code: Nc1ncnc2c1ncn2CCOCP(=O)(OCCCCCCCCCCO)OCCCCCCCCCCO
system: Punta Toro virus
EC50: > 34 µM

The value of EC50 measured for the molecule Nc1ncnc2c1ncn2CCOCP(=O)(OCCOCCCCCCCCCCO)OCCOCCCCCCCCCCO turned out to be > 29.7 µM

###

System: Human betaherpesvirus 5
Assay: microbe, parasite or virus in culture
Conditions: Human betaherpesvirus 5, AD169, HEL
measurement.type: pEC50
One number for each entry, as −log10 of the molar value.

Please review the following examples before continuing.
smiles.code: Nc1ncnc2c1ncn2CCOCP(=O)(O)O
pEC50: 3.93
//
smiles.code: Nc1ccn(C[C@@H](CO)OCP(=O)(O)O)c(=O)n1
pEC50: 6.04
//
smiles.code: CCOCCOCCOCCOCCOCCOCCOP(=O)(O)CO[C@H](CO)Cn1ccc(N)nc1=O
pEC50: 6.02

Pending molecule:
// Nc1ccn(C[C@@H](CO)OCP(=O)(O)OCCOCCOCCOCCOCCOCCO)c(=O)n1 : pEC50 value = 6.10

###

System: HEL
Conditions: human, 72 h
measurement.type: CC50 (µM)
One number for each entry, in µM.

Reference set (5 entries):
smiles.code: Nc1ncnc2c1ncn2CCOCP(=O)(OCCOCCCCCCCCCCO)OCCOCCCCCCCCCCO
system: HEL
CC50 (µM): 62.5
//
smiles.code: CCOCCOCCOCCOCCOCCOCCOP(=O)(O)COCCn1cnc2c(N)ncnc21
system: HEL
CC50 (µM): 146
//
smiles.code: Cc1oc(=O)oc1COP(=O)(O)COCCn1cnc2c(N)ncnc21
system: HEL
CC50 (µM): 117
//
smiles.code: Nc1ccn(C[C@@H](CO)OCP(=O)(O)O)c(=O)n1
system: HEL
CC50 (µM): 234
//
smiles.code: Nc1nc(O)c2ncn(COC(CO)CO)c2n1
system: HEL
CC50 (µM): 435

Let us examine a further case.
# O=c1[nH]c(=O)n([C@H]2C[C@H](O)[C@@H](CO)O2)cc1/C=C/Br with HEL: CC50 is 470

###

System: Vesicular stomatitis virus
Assay: microbe, parasite or virus in culture
Settings: HeLa
measurement.type: EC50

The reported EC50 of the compound Nc1ncnc2c1ncn2CCOCP(=O)(OCCOCCCCCCCCCCO)OCCOCCCCCCCCCCO was > 29.7 µM

###

Tested on: CCRF-CEM
Conditions: human, 72 h
measurement.type: CC50 (µM)
Give bare numbers, in µM.

smiles.code: Nc1ncnc2c1ncn2CCOCP(=O)(OCCOCCCCCCCCCCO)OCCOCCCCCCCCCCO
CC50, µM: 13.5

smiles.code: Nc1ncnc2c1ncn2CCOCP(=O)(O)O
CC50, µM: 164

The record that follows has no CC50 shown yet.
With CCRF-CEM as the test system, Cc1oc(=O)oc1COP(=O)(O)COCCn1cnc2c(N)ncnc21 showed CC50 of 88

###

Test system: Vesicular stomatitis virus
Experiment: microbe, parasite or virus in culture
Details: HEL
measurement.type: EC50

Value of EC50 reported for the compound Nc1ncnc2c1ncn2CCOCP(=O)(OCCOCCCCCCCCCCO)OCCOCCCCCCCCCCO is > 29.7 µM

###

Test system: Human betaherpesvirus 5
Assay: microbe, parasite or virus in culture
Conditions: Human betaherpesvirus 5, Davis, HEL
measurement.type: EC50

Below are worked cases with known answers.
smiles.code: Nc1ccn(C[C@@H](CO)OCP(=O)(O)O)c(=O)n1
EC50: 0.94 µM
//
smiles.code: Nc1ncnc2c1ncn2CCOCP(=O)(OCCCCCCCCCCO)OCCCCCCCCCCO
EC50: > 34 µM

List the reported EC50 of each compound below.
1. Nc1ncnc2c1ncn2CCOCP(=O)(OCCOCCCCCCCCCCO)OCCOCCCCCCCCCCO
2. Nc1ccn(C[C@@H](CO)OCP(=O)(O)OCCOCCOCCOCCOCCOCCO)c(=O)n1

OUTPUT:
["> 29.7 µM", "0.7 µM"]

Record Nc1ncnc2c1ncn2CCOCP(=O)(O)O , field EC50: 115 µM

###

System: Human betaherpesvirus 5
Test: microbe, parasite or virus in culture
Conditions: Human betaherpesvirus 5, AD169, HEL
pEC50: −log10 of the molar value.
measurement.type: pEC50

Please give pEC50, item by item, for the list that follows.
1. Nc1ncnc2c1ncn2CCOCP(=O)(OCCOCCCCCCCCCCO)OCCOCCCCCCCCCCO
2. Nc1ncnc2c1ncn2CCOCP(=O)(OCCOCCCCCCCCC(O)CO)OCCOCCCCCCCCC(O)CO (stereo not drawn)
3. Nc1ncnc2c1ncn2CCOCP(=O)(OCCCCCCCCCCO)OCCCCCCCCCCO

OUTPUT:
["< 4.53", "< 4.55", "< 4.47"]

From: ChEMBL document CHEMBL1811861
